target: PIN8 (Arabidopsis thaliana, UniProt Q9LFP6); construct: made in house; assay: SSM electrophysiology, KD by inhibition of the NPA binding current; conditions: 20 µM substrate; 100 µM NPA; individual sensors; read-out: Rel. Inhibition of NPA peak currents
Sequence (Q9LFP6 whole entry): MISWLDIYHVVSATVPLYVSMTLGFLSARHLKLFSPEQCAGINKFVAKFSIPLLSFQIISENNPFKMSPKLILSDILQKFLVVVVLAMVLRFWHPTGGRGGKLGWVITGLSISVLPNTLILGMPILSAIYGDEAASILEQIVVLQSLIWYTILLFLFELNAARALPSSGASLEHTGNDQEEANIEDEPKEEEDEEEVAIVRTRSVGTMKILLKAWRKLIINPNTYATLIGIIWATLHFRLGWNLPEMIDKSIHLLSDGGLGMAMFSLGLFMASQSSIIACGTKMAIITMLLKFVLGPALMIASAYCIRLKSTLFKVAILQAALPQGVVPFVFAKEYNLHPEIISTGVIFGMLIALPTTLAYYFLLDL
VALUE_TYPE: inhibition at 20 µM (%)
Write down the numeric answer in % and omit the unit.

The following compounds have reported results that may help.
O=C(O)COc1ccccc1Cl [2-CPA, 2-chlorophenoxyacetic acid]; 19.9
Cc1ccc(OCC(=O)O)c(C)c1 [2,4-DMPA, 2-(2,4-dimethylphenoxy)acetic acid]; 9.25
O=C(O)CCc1ccc(Cl)cc1Cl [2,4-DPP, 3-(2,4-dichlorophenyl)-propionic acid]; 37.2

Attention now shifts to the item below.
Quick note, inhibition at 20 µM for O=C(O)COc1ccc(Cl)cc1 [4-CPA, 4-chlorophenoxyacetic acid] landed at 9.7
